Biological target: T1, human CD4, cell-expressed (human, UniProt P01730 26-458)
T1 construct: whole, on cells
Assay: FACS, MOLM-13 cells
MEASUREMENT KIND: binding result

• CD4#8-IL12Rb1#30 (bispecific antibody, also called BI#40; T023200040) EVQLVESGGGSVQPGGSLTLSCGTSGRTFNVMGWFRQAPGKEREFVAAVRWSSTGIYYTQYADSVKSRFTISRDNAKNTVYLEMNSLKPEDTAVYYCAADTYNSNPARWDGYDFRGQGTLVTVSSGGGGSGGGGSGGGGSGGGGSGGGGSGGGGSGGGGSEVQLVESGGGLVQTGGSLRLSCAASGRTPRLVAMGWFRQTPGKEREFVGEIILSKGFTYYADSVKGRFTISRVNAKNTITMYLQMNSLKSEDTAVYYCAGRQNWSGSPARTNEYEYWGQGTLVTVSS = binds
• CD4#8-IL23R#20 (bispecific antibody, also called BI#44; T023200044) EVQLVESGGGSVQPGGSLTLSCGTSGRTFNVMGWFRQAPGKEREFVAAVRWSSTGIYYTQYADSVKSRFTISRDNAKNTVYLEMNSLKPEDTAVYYCAADTYNSNPARWDGYDFRGQGTLVTVSSGGGGSGGGGSGGGGSGGGGSGGGGSGGGGSGGGGSEVQLVESGGGLVQAGGSLRLSCAASGRTFSSYAMGWFRQAPGKDREFVAAISWIGESTYYADSVKGRFTISRDNAKNTVYLRMNSLKPEDTAVYYCAADLYYTAYVAAADEYDYWGQGTLVTVSS = binds
• IL12Rb1#30-CD4#8 (bispecific antibody, also called BI#46; T023200046) EVQLVESGGGLVQTGGSLRLSCAASGRTPRLVAMGWFRQTPGKEREFVGEIILSKGFTYYADSVKGRFTISRVNAKNTITMYLQMNSLKSEDTAVYYCAGRQNWSGSPARTNEYEYWGQGTLVTVSSGGGGSGGGGSGGGGSGGGGSGGGGSGGGGSGGGGSEVQLVESGGGSVQPGGSLTLSCGTSGRTFNVMGWFRQAPGKEREFVAAVRWSSTGIYYTQYADSVKSRFTISRDNAKNTVYLEMNSLKPEDTAVYYCAADTYNSNPARWDGYDFRGQGTLVTVSS = binds
